TEST SYSTEM: Histo-blood group ABO system transferase (Homo sapiens, UniProt P16442)
PROTOCOL DETAILS: Inhibition of human blood group B Galactosyltransferase using UDP-Gal as substrate by STD NMR analysis in presence of magnesium ions
EXPERIMENTAL ENDPOINT: Ki (µM)

INSERT INTO results (chemical_smiles, experimental_endpoint, unit_abbreviation, recorded_result) VALUES
  ('O=c1[nH]c(=O)c2[nH]c(=O)n(C[C@@H](O)[C@H](O)[C@H](O)CO[C@H]3O[C@H](CO)[C@H](O)[C@H](O)[C@H]3O)c2[nH]1', 'Ki', 'µM', 117);

P. O=c1[nH]c(=O)c2[nH]c(=O)n(C[C@@H](O)[C@H](O)[C@H](O)CO)c2[nH]1
Q. O=c1[nH]c(=O)c2[nH]c(=O)n(C[C@H](O)[C@H](O)[C@H](O)CO)c2[nH]1
Query: // pick min by Ki: P , Q Answer by quoting the chosen item's label.
Response: Q
(Q: 361 µM, P: 571 µM)

* * *

TEST SYSTEM: Histo-blood group ABO system transferase (Homo sapiens, UniProt P16442)
PROTOCOL DETAILS: Inhibition of human blood group B Galactosyltransferase using radiolabeled UDP-Gal as substrate in presence of manganese ions
EXPERIMENTAL ENDPOINT: Ki (mM)

INSERT INTO assay_data (chemical_smiles, test_system, unit_abbreviation, recorded_result) VALUES
  ('O=c1[nH]c(=O)c2[nH]c(=O)n(C[C@H](O)[C@H](O)[C@H](O)CO)c2[nH]1', 'Histo-blood group ABO system transferase (Homo sapiens, UniProt P16442)', 'mM', 1.5);

a. O=c1[nH]c(=O)c2[nH]c(=O)n(C[C@@H](O)[C@H](O)[C@H](O)CO[C@H]3O[C@H](CO)[C@H](O)[C@H](O)[C@H]3O)c2[nH]1
b. O=c1[nH]c(=O)c2[nH]c(=O)n(C[C@@H](O)[C@H](O)[C@H](O)CO)c2[nH]1
Query: Quick check, higher Ki between a and b ? Indicate which entry you chose by stating its label.
Response: b

* * *

PROTOCOL DETAILS: Competitive inhibition of human blood group A N-acetylgalactosaminyltransferase using UDP-GalNac as substrate in presence of magnesium ions
EXPERIMENTAL ENDPOINT: Ki (µM)

1. O=c1[nH]c(=O)c2[nH]c(=O)n(C[C@@H](O)[C@H](O)[C@H](O)CO)c2[nH]1
2. O=c1[nH]c(=O)c2[nH]c(=O)n(C[C@H](O)[C@H](O)[C@H](O)CO)c2[nH]1
Query: Kindly identify which of 1 and 2 has the larger recorded Ki value. // caller expects the label of the chosen entry
Response: 1
(1: 1100 µM, 2: 712 µM)

* * *

TEST SYSTEM: Histo-blood group ABO system transferase (Homo sapiens, UniProt P16442)
PROTOCOL DETAILS: Inhibition of human blood group B Galactosyltransferase using radiolabeled UDP-Gal as substrate in presence of manganese ions
EXPERIMENTAL ENDPOINT: pIC50
For clarity, pIC50 is expressed as the negative log10 of concentration in mol/L.

Query: # pIC50 lookup, item O=c1[nH]c(=O)c2[nH]c(=O)n(C[C@@H](O)[C@H](O)[C@H](O)CO[C@H]3O[C@H](CO)[C@H](O)[C@H](O)[C@H]3O)c2[nH]1
Response: 2.80

* * *

TEST SYSTEM: Histo-blood group ABO system transferase (Homo sapiens, UniProt P16442)
PROTOCOL DETAILS: Inhibition of human blood group B Galactosyltransferase using UDP-Gal as substrate by STD NMR analysis in presence of magnesium ions
EXPERIMENTAL ENDPOINT: IC50 (µM)
The reply should contain only the number, in µM.

Query: Form field: reported IC50 of O=c1[nH]c(=O)c2[nH]c(=O)n(C[C@@H](O)[C@H](O)[C@H](O)CO[C@H]3O[C@H](CO)[C@H](O)[C@H](O)[C@H]3O)c2[nH]1
Response: 389

* * *

TEST SYSTEM: Histo-blood group ABO system transferase (Homo sapiens, UniProt P16442)
Sequence (P16442 whole entry): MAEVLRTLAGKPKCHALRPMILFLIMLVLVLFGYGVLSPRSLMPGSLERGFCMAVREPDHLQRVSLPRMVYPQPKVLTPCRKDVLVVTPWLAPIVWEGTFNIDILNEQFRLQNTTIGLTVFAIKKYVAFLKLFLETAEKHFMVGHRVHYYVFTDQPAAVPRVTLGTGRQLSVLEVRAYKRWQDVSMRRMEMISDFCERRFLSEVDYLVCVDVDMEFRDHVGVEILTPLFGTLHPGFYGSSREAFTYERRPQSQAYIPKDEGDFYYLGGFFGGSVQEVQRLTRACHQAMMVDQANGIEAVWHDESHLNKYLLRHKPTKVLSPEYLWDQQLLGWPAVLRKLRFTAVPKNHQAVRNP
PROTOCOL DETAILS: Binding affinity to human blood group B Galactosyltransferase after 300 secs by SPR analysis
EXPERIMENTAL ENDPOINT: Kd (µM)

P. O=c1[nH]c(=O)c2[nH]c(=O)n(C[C@@H](O)[C@H](O)[C@H](O)CO)c2[nH]1
Q. O=c1[nH]c(=O)c2[nH]c(=O)n(C[C@@H](O)[C@H](O)[C@H](O)CO[C@H]3O[C@H](CO)[C@H](O)[C@H](O)[C@H]3O)c2[nH]1
Query: Thinking about recorded Kd values, which is higher, P or Q ? Let me know the label of the one you choose.
Response: P

Values from ChEMBL document CHEMBL2321747
